Data credit: ChEMBL document CHEMBL1151751

test name: Inhibition of Plasmodium vivax FPPS expressed in Escherichia coli BL21 by spectrophotometric assay
pIC50: −log10 of the molar value.
measure: pIC50

{"query smiles": "CN(CCc1ccccc1)CCC(O)(P(=O)(O)O)P(=O)(O)O", "test value": 6.40}
{"query smiles": "CCCCCCCCCNC(P(=O)(O)O)P(=O)(O)O", "test value": 5.28}
{"query smiles": "Cc1cccc(CC(O)(P(=O)(O)O)P(=O)(O)O)c1", "test value": 5.64}
{"query smiles": "O=P(O)(O)C(O)(CSc1ccncc1)P(=O)(O)O", "test value": 5.92}
{"query smiles": "CCCCCCC(O)(P(=O)(O)O)P(=O)(O)O", "test value": 6.20}
{"query smiles": "O=P(O)(O)C(O)(Cc1ccccn1)P(=O)(O)O", "test value": 6.05}
{"query smiles": "CCCC(O)(P(=O)(O)O)P(=O)(O)O", "test value": 6.11}
{"query smiles": "O=P(O)(O)C(CNc1ccccn1)P(=O)(O)O", "test value": 6.09}
{"query smiles": "CCCCCCCCNC(P(=O)(O)O)P(=O)(O)O", "test value": 6.31}
{"query smiles": "CCCCCCCCCCCCCC(O)(P(=O)(O)O)P(=O)(O)O", "test value": 5.39}
{"query smiles": "O=P(O)(O)C(O)(Cc1cccc(F)c1)P(=O)(O)O", "test value": 6.20}
{"query smiles": "CCCCCCCCCC(O)(P(=O)(O)O)P(=O)(O)O", "test value": 6.15}
{"query smiles": "O=P(O)(O)C(O)(Cc1cccc(Br)c1)P(=O)(O)O", "test value": 6.06}
{"query smiles": "CCCCCN(C)CCC(O)(P(=O)(O)O)P(=O)(O)O", "test value": 6.04}
{"query smiles": "Cc1ccc(C)c(COc2ccc(C)nc2NC(P(=O)(O)O)P(=O)(O)O)c1", "test value": 4.01}
{"query smiles": "O=P(O)(O)C(O)(Cc1cccc(C(F)(F)F)c1)P(=O)(O)O", "test value": 6.17}
{"query smiles": "CN(CCCc1ccccc1)CCC(O)(P(=O)(O)O)P(=O)(O)O", "test value": 6.35}
{"query smiles": "CN(Cc1ccccc1)C(P(=O)(O)O)P(=O)(O)O", "test value": 6.06}
{"query smiles": "O=P(O)(O)C(O)(Cc1cccc(Cl)c1)P(=O)(O)O", "test value": 6.20}
{"query smiles": "O=P(O)(O)C(Nc1nccs1)P(=O)(O)O", "test value": 6.15}
